System: SK-MEL-5 melanoma
Assay: NCI tumour cell line growth inhibition, 48 h
# TGI annotations

compound	units symbol	inequality sign	TGI
CC[C@@H](C(=O)[C@H](C)[C@H](O)[C@@H](C)[C@H]1O[C@H]([C@@H](CC)C(=O)O)CC[C@H]1C)C1O[C@]2(C=C[C@@H](O)[C@]3(CC[C@@](C)([C@H]4CC[C@](O)(CC)[C@H](C)O4)O3)O2)[C@H](C)C[C@@H]1C (some centres undefined)	µM	=	0.274
CCCCc1ccc(-n2sc3ncc([N+](=O)[O-])cc3c2=O)cc1	µM	=	27.7
c1ccc(-c2nnc(SCc3c[nH]c4ccccc34)n2-c2ccccc2)cc1	µM	=	61
CC(C)OP(=O)(OC(C)C)c1ccc2c(c1)OCCOCCOCCOCCO2	µM	>	100

----------
System: BT-549 breast
Assay: NCI tumour cell line growth inhibition, 48 h
Returns condition met if the recorded TGI is greater than or equal to 30 µM, and condition not met otherwise.

molecule	group
COC(=O)c1c2c(cc3c1CC1(C3)Cc3cc4c(c(C(C)=O)c3C1)CCC4)C=CC2 (stereo not given)	condition met
N#Cc1ccsc1NC(=O)COC(=O)c1cccc(S(=O)(=O)N2CCc3ccccc32)c1	condition met
O=C(O)CCNC(=O)c1cc(N(CCBr)CCBr)c([N+](=O)[O-])cc1[N+](=O)[O-]	condition met
Cc1[nH]c(C(=O)Nc2ccccc2OC2CCNCC2)c(Cl)c1Cl	condition not met
CC(C)(C)OC(=O)NCCC(=O)NC1(c2cc3ccccc3s2)CCCCC1	condition met
O=c1c2c(c3ccccc3n1-c1ccccc1)NC(=S)NC2c1ccc(Cl)cc1 (stereo not given)	condition not met
COC(=O)C(C(=O)C(=O)Nc1ccccc1C#N)c1nc2ccc([N+](=O)[O-])cc2[nH]c1=O (stereo not given)	condition met
CCCCCCCCCCC/C=C\C[C@H](O)C/C=C1/C(=O)C=C[C@@H]1C/C=C\CCCC(=O)OC	condition not met
O=c1c(C2=NCCC2)c(-c2ccc[nH]2)[nH]n1-c1ccccc1	condition met

----------
Test system: A549 NSCLC
Assay: NCI tumour cell line growth inhibition, 48 h

molecule	system	TGI
c1cnc2c(c1)-n1cccc1C1(CCSC1)NN2 (stereo not drawn)	A549 NSCLC	> 100 µM
Cc1cc2c(C(C)C)c(O)c(O)c(C=NCCO)c2c(O)c1-c1c(C)cc2c(C(C)C)c(O)c(O)c(C=NCCO)c2c1O	A549 NSCLC	2.98 µM
NC1(C(=O)O)CCc2ccc(N(CCCl)CCCl)cc2C1 (stereo not drawn)	A549 NSCLC	> 100 µM
COC1=CC(=O)c2c(cc(COP(=O)(OCC3OC(n4cc(F)c(=O)[nH]c4=O)CC3O)N(C)CCCCCl)n2C)C1=O (stereo not drawn)	A549 NSCLC	6.27 µM
CN1C[C@H]2[C@@H](C1=O)[C@H](c1ccccc1)ON2C	A549 NSCLC	> 100 µM
CC(=O)O[C@H]1C=CC(=O)C(C)CC1C (stereo partly drawn)	A549 NSCLC	> 100 µM
CC1(c2cccc(N)c2)C2C(=O)NC(=O)C1C(=O)NC2=O (stereo not drawn)	A549 NSCLC	> 100 µM
CCOC(=O)c1ccc2c(c1)nc(/C=C/c1ccc(Cl)cc1)n2-c1cc(C(C)(C)C)[nH]n1	A549 NSCLC	19.7 µM
CCC/C(Cl)=N\OC(=O)Nc1cccc(C(F)(F)F)c1	A549 NSCLC	36.1 µM
NCCCn1c2c(c3ccc([N+](=O)[O-])cc3c1=O)C(=O)c1cc(-c3ccccc3)ccc1-2	A549 NSCLC	0.552 µM
COC(=O)C1=CC2CC1C(S(=O)(=O)c1ccccc1)C2S(=O)(=O)c1ccccc1 (stereo not drawn)	A549 NSCLC	69.3 µM
COc1cc(OC)c2c(=O)c(OC)c(-c3ccc4c(c3)OCO4)oc2c1OC	A549 NSCLC	> 100 µM
O=c1cc(N2CCCC2)[nH]c(=O)n1-c1ccc(F)cc1	A549 NSCLC	> 100 µM
NC(=O)C(=CNC(=S)Nc1ccc(Cl)c(Cl)c1)C(N)=O	A549 NSCLC	> 100 µM
NS(=O)(=O)c1ccc(NCc2cnc3ccccc3n2)cc1	A549 NSCLC	> 100 µM
O=C(Nc1nc(C23CC4CC(CC(C4)C2)C3)cs1)c1cc2cc(Cl)ccc2oc1=O	A549 NSCLC	> 100 µM
Cc1ccc(NCC(=O)N2CC(=O)Nc3ccccc32)cc1	A549 NSCLC	> 100 µM
O=C(O)CCNC(=O)c1cc(N(CCBr)CCBr)c([N+](=O)[O-])cc1[N+](=O)[O-]	A549 NSCLC	> 100 µM
O=C(NNCC(F)(F)F)c1ccncc1	A549 NSCLC	> 100 µM
CSc1nc2c(nc(N)n2C2OC(COC(C)=O)C(OC(C)=O)C(OC(C)=O)C2OC(C)=O)c(=O)n1C (stereo not drawn)	A549 NSCLC	> 100 µM
Cc1[nH]c(C(=O)Nc2ccccc2OC2CCNCC2)c(Cl)c1Cl	A549 NSCLC	3.35 µM
CSc1ccc(OCC2OC2O)cc1 (stereo not drawn)	A549 NSCLC	> 100 µM
C=C1CCC2C3(C)COC(c4c(OC)cccc4OC)OC3CCC2(C)C1C/C=C1/C(=O)OCC1O (stereo not drawn)	A549 NSCLC	11.6 µM
Cc1ccc(NC(=O)CC/C(CC(=O)C(C)(C)C)=N/NC(=O)C[N+](C)(C)C)cc1C	A549 NSCLC	59.4 µM
S=C(N/N=C/c1ccccn1)Nc1ccc(Cl)cc1	A549 NSCLC	> 65.4 µM
CCCCCCCCCCCCCCCC(=O)N[C@H](/C=C/[C@H](O)CCCCCCCCCCCCC)CO	A549 NSCLC	> 100 µM
CCN1C(=O)/C(=C2\SC(c3ccccc3)(c3ccccc3)c3ccccc32)SC1=S	A549 NSCLC	> 100 µM
CSCC[C@H](NC(=O)[C@H](CC(C)C)NC(=O)[C@@H](Cc1ccccc1)NC(=O)CNC(=O)[C@@H](NC(=O)[C@H](C)NC(=O)[C@H](Cc1c[nH]c2ccccc12)NC(=O)[C@H](CCC(N)=O)NC(=O)[C@H](N)CC(N)=O)C(C)C)C(N)=O	A549 NSCLC	> 12.5 µM
